All values here come from patent US10526316B2.

Below, each entry is listed alongside its reported pKd.
# TGT: kinase enzymes (Homo sapiens, UniProt P42336)
# Sequence (P42336 whole entry): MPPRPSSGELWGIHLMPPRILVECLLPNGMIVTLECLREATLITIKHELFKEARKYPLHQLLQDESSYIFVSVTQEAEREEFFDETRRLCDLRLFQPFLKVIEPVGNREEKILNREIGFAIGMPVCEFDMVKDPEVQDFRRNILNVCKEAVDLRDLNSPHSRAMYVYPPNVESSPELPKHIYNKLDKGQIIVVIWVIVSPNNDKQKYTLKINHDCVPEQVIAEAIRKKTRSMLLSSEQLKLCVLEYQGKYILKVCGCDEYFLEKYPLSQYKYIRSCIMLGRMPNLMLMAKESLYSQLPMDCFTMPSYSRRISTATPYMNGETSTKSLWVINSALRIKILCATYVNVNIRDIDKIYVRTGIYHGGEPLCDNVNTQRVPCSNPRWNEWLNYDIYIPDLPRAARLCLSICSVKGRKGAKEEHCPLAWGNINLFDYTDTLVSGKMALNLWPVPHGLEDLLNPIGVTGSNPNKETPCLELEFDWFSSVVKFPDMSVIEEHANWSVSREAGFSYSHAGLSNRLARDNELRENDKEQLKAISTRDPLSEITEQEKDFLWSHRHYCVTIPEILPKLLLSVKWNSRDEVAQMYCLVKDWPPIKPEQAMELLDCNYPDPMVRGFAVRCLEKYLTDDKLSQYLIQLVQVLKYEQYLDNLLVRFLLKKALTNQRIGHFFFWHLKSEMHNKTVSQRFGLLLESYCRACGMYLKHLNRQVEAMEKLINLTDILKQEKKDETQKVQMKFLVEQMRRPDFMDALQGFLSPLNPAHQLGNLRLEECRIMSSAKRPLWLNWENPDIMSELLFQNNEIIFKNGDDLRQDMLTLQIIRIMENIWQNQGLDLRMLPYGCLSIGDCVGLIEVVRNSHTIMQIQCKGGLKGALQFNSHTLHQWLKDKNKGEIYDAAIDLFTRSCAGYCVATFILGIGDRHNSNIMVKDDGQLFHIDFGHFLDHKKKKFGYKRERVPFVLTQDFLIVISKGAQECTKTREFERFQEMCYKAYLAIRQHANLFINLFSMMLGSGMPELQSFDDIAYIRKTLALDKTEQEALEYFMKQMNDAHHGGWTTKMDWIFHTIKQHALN
Formally, pKd is defined as -log10 of the concentration c, with c in mol/L.

>>> df
                                   compound  result_number
0  NCc1cc(C2CCCN2c2cc(F)cc(F)c2)c2nc(N3CCOCC3)cnc2c1 (stereo not shown)           6.44
1  CC(Nc1cc(F)cc(F)c1)c1cc(C(=O)N2CCNC(C(F)(F)F)C2)cc2ncc(N3CCOCC3)nc12 (single isomer, unassigned) [Compound 237c]           6.43
2  CC(Nc1cccc(F)c1)c1cc(C(=O)N2CCOCC2)cc2ncc(N3CCOCC3)nc12 (stereo not shown)           5.87
3  CN[C@@H]1CCN(C(=O)c2cc(C(C)Nc3ccc(F)c(F)c3)c3nc(N4CCOCC4)cnc3c2)C1 (single isomer, unassigned) [Compound 371b]           4.90
4  CNCCNC(=O)c1cc(C(C)Oc2ccc(Cl)c(F)c2)c2nc(N3CCOCC3)cnc2c1 (single isomer, unassigned) [Compound 380b]           5.42

// switching to the query compound
Missing value: pKd, kinase enzymes (Homo sapiens, UniProt P42336), entry CN(C)C(=O)c1cc(C2CCCN2c2ccc(C#N)c(F)c2)c2nc(N3CCOCC3)cnc2c1 (stereo not shown) . Fill in?
4.79

----------
# TGT: PI3Kβ (Homo sapiens)
# Construct: purchased DiscoveRx Corporation, San Diego (contract service, KINOMEscan)
# Sequence (P42338 whole entry): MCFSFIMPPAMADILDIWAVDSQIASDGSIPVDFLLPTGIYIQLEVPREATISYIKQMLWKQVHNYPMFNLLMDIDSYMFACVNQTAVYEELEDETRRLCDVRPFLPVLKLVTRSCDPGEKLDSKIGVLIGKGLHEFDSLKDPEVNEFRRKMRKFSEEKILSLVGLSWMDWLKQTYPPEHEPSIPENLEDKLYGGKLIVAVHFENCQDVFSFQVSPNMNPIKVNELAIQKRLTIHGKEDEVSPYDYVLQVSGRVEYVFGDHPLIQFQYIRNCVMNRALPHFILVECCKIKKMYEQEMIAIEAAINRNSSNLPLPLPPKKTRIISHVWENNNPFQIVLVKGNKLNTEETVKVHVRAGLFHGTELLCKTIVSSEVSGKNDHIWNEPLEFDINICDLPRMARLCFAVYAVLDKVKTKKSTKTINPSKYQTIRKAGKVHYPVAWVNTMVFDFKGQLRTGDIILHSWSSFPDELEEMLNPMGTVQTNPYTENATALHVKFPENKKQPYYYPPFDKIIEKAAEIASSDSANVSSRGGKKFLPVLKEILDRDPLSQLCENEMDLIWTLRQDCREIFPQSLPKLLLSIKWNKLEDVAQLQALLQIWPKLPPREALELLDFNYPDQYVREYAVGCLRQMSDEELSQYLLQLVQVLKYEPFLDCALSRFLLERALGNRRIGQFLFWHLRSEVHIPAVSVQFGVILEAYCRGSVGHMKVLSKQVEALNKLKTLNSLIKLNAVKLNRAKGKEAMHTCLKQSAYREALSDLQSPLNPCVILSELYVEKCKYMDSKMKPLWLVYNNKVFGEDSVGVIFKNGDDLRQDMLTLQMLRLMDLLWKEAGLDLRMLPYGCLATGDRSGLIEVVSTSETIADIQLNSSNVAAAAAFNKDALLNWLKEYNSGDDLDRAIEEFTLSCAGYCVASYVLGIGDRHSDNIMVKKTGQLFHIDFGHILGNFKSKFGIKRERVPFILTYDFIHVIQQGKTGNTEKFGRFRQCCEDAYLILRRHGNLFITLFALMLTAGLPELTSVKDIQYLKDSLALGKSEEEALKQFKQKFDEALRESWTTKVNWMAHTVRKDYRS
# EXPERIMENT_DESCRIPTION: Enzyme binding assay (KINOMEscan, DiscoveRx)
# CONDITION_INFO: PIK3Cβ_h, read-out: Kd PIK3Cβ_h
// NB: equality with 20 nM counts as label 0; only Kd strictly below is label 1

Completed entries (count: 6):
                                   compound  group_label
0  CC(Nc1cc(F)cc(F)c1)c1cc(C(=O)N(C)CCN(C)C)cc2ncc(N3CCOCC3)nc12 (centres unmarked) [Compound 180]      label 1
1  CC(Nc1cc(F)cc(F)c1)c1cc(CN2C[C@@H](C)O[C@@H](C)C2)cc2ncc(N3CCOCC3)nc12 (single isomer, unassigned) [Compound 208]      label 1
2  Cc1ccc(NC(C)c2cc(C(=O)NCCO)cc3ncc(N4CCOCC4)nc23)cc1F (centres unmarked) [Compound 295]      label 0
3  CCN(c1cccc(F)c1)C(C)c1cc(C(=O)N2CCOCC2)cc2ncc(N3CCOCC3)nc12 (centres unmarked)      label 1
4  CC(Oc1cc(F)cc(F)c1)c1cc(C(=O)N(C)C)cc2ncc(N3CCOCC3)nc12 (centres unmarked) [Compound 53]      label 1
5  CC(Nc1cc(F)cc(F)c1)c1cc(CN2CCS(=O)(=O)CC2)cc2ncc(N3CCOCC3)nc12 (single isomer, unassigned) [Compound 156]      label 1

I'd appreciate it if you could check whether O=C(NCCO)c1cc(N2CCC2c2ccc(F)cc2)c2nc(N3CCOCC3)cnc2c1 (centres unmarked) [Compound 391] has Kd smaller than 20 nM.
label 0

Bench note: check whether CC(Nc1cccc(F)c1)c1cc(C(=O)N2CCC[C@H](O)C2)cc2ncc(N3CCOCC3)nc12 (single isomer, unassigned) [Compound 320b] shows Kd below 20 nM
label 0

I wonder whether CC(Nc1cccc(F)c1)c1cc(C(=O)NCC(=O)O)cc2ncc(N3CCOCC3)nc12 (single isomer, unassigned) [Compound 393b] has Kd below 20 nM. Can you tell?
label 0
